pIC50: −log10 of the molar value.
Across several studies, compounds have been characterized by their pIC50 on Homeodomain-interacting protein kinase 1 (Homo sapiens, UniProt Q86Z02); a selection follows.
Sequence (Q86Z02 whole entry): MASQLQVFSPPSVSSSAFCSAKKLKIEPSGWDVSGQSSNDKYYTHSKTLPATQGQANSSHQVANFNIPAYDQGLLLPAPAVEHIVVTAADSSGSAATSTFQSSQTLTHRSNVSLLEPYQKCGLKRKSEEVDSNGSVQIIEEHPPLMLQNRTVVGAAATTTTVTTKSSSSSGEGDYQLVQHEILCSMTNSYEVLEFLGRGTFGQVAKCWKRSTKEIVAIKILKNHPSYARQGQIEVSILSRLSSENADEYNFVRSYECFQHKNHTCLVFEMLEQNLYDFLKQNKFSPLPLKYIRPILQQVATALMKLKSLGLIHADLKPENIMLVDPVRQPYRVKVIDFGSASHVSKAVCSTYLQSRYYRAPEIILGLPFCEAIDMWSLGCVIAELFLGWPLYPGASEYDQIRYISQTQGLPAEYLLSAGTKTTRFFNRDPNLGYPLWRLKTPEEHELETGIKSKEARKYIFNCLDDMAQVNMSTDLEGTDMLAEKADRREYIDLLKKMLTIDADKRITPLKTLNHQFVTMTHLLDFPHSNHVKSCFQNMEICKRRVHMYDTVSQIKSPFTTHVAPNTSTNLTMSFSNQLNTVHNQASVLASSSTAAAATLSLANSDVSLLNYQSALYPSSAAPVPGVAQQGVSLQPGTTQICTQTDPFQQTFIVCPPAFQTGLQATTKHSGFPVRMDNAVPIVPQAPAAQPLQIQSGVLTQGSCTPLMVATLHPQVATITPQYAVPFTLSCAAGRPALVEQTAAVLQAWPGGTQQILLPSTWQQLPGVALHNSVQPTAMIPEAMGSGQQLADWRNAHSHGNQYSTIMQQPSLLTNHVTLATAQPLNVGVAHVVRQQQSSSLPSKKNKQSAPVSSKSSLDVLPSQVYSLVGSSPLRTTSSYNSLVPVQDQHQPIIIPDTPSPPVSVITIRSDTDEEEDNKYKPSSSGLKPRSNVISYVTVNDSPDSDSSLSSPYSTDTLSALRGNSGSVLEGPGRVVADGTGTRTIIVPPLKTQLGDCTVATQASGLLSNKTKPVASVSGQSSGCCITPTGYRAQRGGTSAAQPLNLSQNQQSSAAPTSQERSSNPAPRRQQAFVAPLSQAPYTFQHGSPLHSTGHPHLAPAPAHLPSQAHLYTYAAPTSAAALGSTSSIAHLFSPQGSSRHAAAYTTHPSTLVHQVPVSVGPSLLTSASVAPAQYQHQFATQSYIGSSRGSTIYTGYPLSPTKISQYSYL

[
  {
    "chemical_smiles": "CC(=O)n1nc(C)c(-c2ccc(Cl)c(Cl)c2)c1N",
    "system_name": "Homeodomain-interacting protein kinase 1 (Homo sapiens, UniProt Q86Z02)",
    "pIC50": "< 4.00"
  },
  {
    "chemical_smiles": "CNC(=O)c1cc(Oc2ccc(NC(=O)Nc3cc(C(C)(C)C)nn3-c3ccc4ncccc4c3)c(F)c2)ccn1",
    "system_name": "Homeodomain-interacting protein kinase 1 (Homo sapiens, UniProt Q86Z02)",
    "pIC50": "< 6.00"
  },
  {
    "chemical_smiles": "O=S(=O)(NCCCNc1nccc(-c2c(-c3cccc(O)c3)nc3sccn23)n1)c1cccc(F)c1",
    "system_name": "Homeodomain-interacting protein kinase 1 (Homo sapiens, UniProt Q86Z02)",
    "pIC50": 5.31
  },
  {
    "chemical_smiles": "N#CCNC(=O)c1ccc(-c2ccnc(Nc3ccc(N4CCOCC4)cc3)n2)cc1",
    "system_name": "Homeodomain-interacting protein kinase 1 (Homo sapiens, UniProt Q86Z02)",
    "pIC50": "> 6.00"
  },
  {
    "chemical_smiles": "COc1cc(-c2cnc3ccc(NC(=O)NC(C)(C)C)nc3c2)ccc1O",
    "system_name": "Homeodomain-interacting protein kinase 1 (Homo sapiens, UniProt Q86Z02)",
    "pIC50": "< 4.00"
  },
  {
    "chemical_smiles": "O=S(=O)(NCCNc1nccc(-c2c(-c3cccc(O)c3)nc3sccn23)n1)c1ccc(F)cc1",
    "system_name": "Homeodomain-interacting protein kinase 1 (Homo sapiens, UniProt Q86Z02)",
    "pIC50": 5.29
  },
  {
    "chemical_smiles": "COc1cccc(-c2nc3sccn3c2-c2ccnc(NCCNS(=O)(=O)c3ccc(C(F)(F)F)cc3)n2)c1",
    "system_name": "Homeodomain-interacting protein kinase 1 (Homo sapiens, UniProt Q86Z02)",
    "pIC50": 5.34
  },
  {
    "chemical_smiles": "Cn1cc(-c2cnc3ccc(NC(=O)NCCc4ccccc4)nc3c2)cn1",
    "system_name": "Homeodomain-interacting protein kinase 1 (Homo sapiens, UniProt Q86Z02)",
    "pIC50": "< 4.00"
  },
  {
    "chemical_smiles": "Cn1cc(-c2cnc3ccc(NC(=O)NCc4ccccc4)nc3c2)cn1",
    "system_name": "Homeodomain-interacting protein kinase 1 (Homo sapiens, UniProt Q86Z02)",
    "pIC50": "< 4.00"
  },
  {
    "chemical_smiles": "CCNC(=O)Nc1ccc2ncc(-c3ccc(OC)cc3)cc2n1",
    "system_name": "Homeodomain-interacting protein kinase 1 (Homo sapiens, UniProt Q86Z02)",
    "pIC50": "< 4.00"
  },
  {
    "chemical_smiles": "COC[C@@H](CC(C)C)NC1=N/C(=C\\c2ccc3scnc3c2)C(=O)N1",
    "system_name": "Homeodomain-interacting protein kinase 1 (Homo sapiens, UniProt Q86Z02)",
    "pIC50": "< 5.00"
  },
  {
    "chemical_smiles": "Cn1cc(-c2cnc3ccc(NC(=O)Nc4ccccc4)nc3c2)cn1",
    "system_name": "Homeodomain-interacting protein kinase 1 (Homo sapiens, UniProt Q86Z02)",
    "pIC50": "< 4.00"
  }
]
